Tested on: SH-SY5Y M-currents (KCNQ2, KCNQ3 and KCNQ5)
measurement-description: SH-SY5Y native cell line FLIPR assay (voltage-sensitive dye DiBAC)
Type: cell-based, mouse neuroblastoma, rat glioma hybrid cell line
details: FLIPR assay, SH-SY5Y native cell line; Table 2; read-out: SH-SY5Y EC50
For each record, write down the corresponding EC50.

[in] Reported EC50, compound CC(C)(C)CC(=O)Nc1nc2c(F)cc(F)cn2c1-c1ccc(OC(F)(F)F)cc1 : ____
[out] < 500 nM

[in] Find the recorded EC50 belonging to O=C(CC1CCCC1)Nc1nc2ccc(F)cn2c1-c1cccc(Cl)c1 and report it.
[out] < 500 nM

[in] Look up EC50: O=C(Cc1ccccc1)Nc1nc2ccc(C(F)(F)F)cn2c1-c1ccc(F)cc1
[out] < 500 nM

[in] What does the record list as EC50 for CC(C)(C#N)CC(=O)Nc1nc2ccc(F)cn2c1-c1ccc(OC(F)(F)F)cc1 ?
[out] 500 to 3000 nM

[in] Look up EC50 for this compound: O=C(Cc1ccc(F)cc1)Nc1nc2ccccn2c1-c1ccc(C(F)(F)F)cc1
[out] < 500 nM

[in] Fill in the blank: the reported EC50 of O=C(CCC(F)(F)F)Nc1nc2ccc(F)cn2c1-c1cccc(Cl)c1 is ____.
[out] 500 to 3000 nM

[in] Given O=C(CC(F)(F)F)Nc1nc2ccc(F)cn2c1-c1ccccc1 , state its recorded EC50.
[out] 3000 to 10000 nM

[in] Which EC50 is reported for this compound? O=C(CC1CCCCC1)Nc1nc2ccc(F)cn2c1-c1ccc(C(F)(F)F)cc1
[out] < 500 nM

[in] What value of EC50 has been reported for the following compound? CC(C)(CO)CC(=O)Nc1nc2ccc(F)cn2c1-c1ccc(C(F)(F)F)cc1
[out] 3000 to 10000 nM

[in] Consider the compound CC(C)(C)CC(=O)Nc1nc2ccc(F)cn2c1-c1ccc(Cl)cc1 and give its measured EC50.
[out] < 500 nM

[in] State the recorded EC50 for this entry: O=C(COCc1ccccc1)Nc1nc2ccc(F)cn2c1-c1ccc(OC(F)(F)F)cc1
[out] 3000 to 10000 nM

----------
Assignment: determine reported pEC50 for the given molecules.
Test system: SH-SY5Y M-currents (KCNQ2, KCNQ3 and KCNQ5)
measurement-description: SH-SY5Y native cell line FLIPR assay (voltage-sensitive dye DiBAC)
Format: cell-based, mouse neuroblastoma, rat glioma hybrid cell line
details: FLIPR assay, SH-SY5Y native cell line; Table 2; read-out: SH-SY5Y EC50
pEC50: −log10 of the molar value.

[in] Please give the measured pEC50 for this molecule: CC(CC(=O)Nc1nc2ncccn2c1-c1cccc(Cl)c1)C(F)(F)F (stereo not drawn) [Compound 331]
[out] 5.00 to 5.52

[in] Entry O=C(Cc1ccc(F)cc1)Nc1nc2ccccn2c1-c1cccc(OC(F)(F)F)c1 [Compound 344] : reported pEC50 = ?
[out] > 6.30

[in] Value lookup for pEC50; key = O=C(NCc1ccc(F)cc1)Nc1nc2ccc(F)cn2c1-c1ccc(C(F)(F)F)cc1 [Compound 214]
[out] 5.52 to 6.30

----------
I'd appreciate it if you could supply pEC50 values for the items below.
System: SH-SY5Y M-currents (KCNQ2, KCNQ3 and KCNQ5)
measurement-description: SH-SY5Y native cell line FLIPR assay (voltage-sensitive dye DiBAC)
Format: cell-based, mouse neuroblastoma, rat glioma hybrid cell line
details: FLIPR assay, SH-SY5Y native cell line; Table 2; read-out: SH-SY5Y EC50
pEC50: −log10 of the molar value.

[in] What measured pEC50 goes with O=C(CC1CC1)Nc1nc2ccc(F)cn2c1-c1cccc(OC(F)(F)F)c1 ?
[out] 5.52 to 6.30

[in] Given O=C(Cc1ccc(F)cc1F)Nc1nc2ccc(F)cn2c1-c1ccc(F)cc1 , state its recorded pEC50.
[out] 5.52 to 6.30

[in] What does the data say about its pEC50? Entry: CC(C)(C)CC(=O)Nc1nc2ccc(C(F)(F)F)cn2c1-c1ccc(F)cc1
[out] > 6.30

[in] Could you share which pEC50 value was measured for CC(CC(=O)Nc1nc2ccc(F)cn2c1-c1ccc(F)cc1)C(F)(F)F (centres unmarked) ?
[out] 5.52 to 6.30

[in] Request the reported pEC50 associated with O=C(CC1CC2CCC1C2)Nc1nc2ccc(F)cn2c1-c1ccc(F)cc1 (centres unmarked)
[out] > 6.30

This collection of values is drawn from patent US9018208B2.
